system: Staphylococcus sp.; test: In vitro antibacterial evaluation: minimum inhibitory concentration (MIC), broth dilution method; format: cell-based; conditions: broth dilution, 5×10^5 CFU/mL, 18 hours at 35° C.
quantity measured: MIC Staphylococcus aureus-SMITH (GC 4543) (µg/mL)
// units = µg/mL; emit number, no label

- compound: "CC(c1ccccc1)C1NC(=O)CNC(=O)C(CO)NC(=O)C(C(O)C2CNC(=N)N2C2OC(CO)C(O)C(O)C2O)NC(=O)C(C(O)C2CNC(=N)N2)NC(=O)C(Cc2ccc(OC3OC(CO)C(OC4OC5COC(C67CC8CC(CC(C8)C6)C7)OC5C(O)C4O)C(O)C3O)cc2)NC1=O (stereo not drawn) [Example 127]"
  system tested: "Staphylococcus sp."
  unit string: "µg/mL"
  result number: 2

Please supply the value of reported MIC Staphylococcus aureus-SMITH (GC 4543) for the item CC(c1ccccc1)C1NC(=O)CNC(=O)C(CO)NC(=O)C(C(O)C2CNC(=N)N2C2OC(CO)C(O)C(O)C2O)NC(=O)C(C(O)C2CNC(=N)N2)NC(=O)C(Cc2ccc(OC3OC(CO)C(OC4OC5COC(c6cc7c(cc6Cl)OCO7)OC5C(O)C4O)C(O)C3O)cc2)NC1=O (stereo not drawn) [Example 158] 2
